assay: Lethal dose in L1210 leukemic mice, by administering compound intraperitoneally; format: toxicity, organism-based; details: mouse, in vivo, ip
Endpoint name: LD50 (mg/kg)
Answers are plain numbers, in mg/kg.

Previously resolved entries follow.
• CNC(=O)OCc1c(COC(=O)NC)c(-c2cccs2)n2c1CSC2 = 50
• CC(C)NC(=O)OCc1c(COC(=O)NC(C)C)c(-c2cccs2)n2c1CCC2 = 35
• CC(=O)OCc1c(COC(C)=O)c(-c2cccs2)n2c1CCC2 = 80
• CNC(=O)OCc1c(COC(=O)NC)c(-c2cccs2)n2c1CCC2 = 120

We now examine a further compound.
Value of LD50 reported for the compound CC(C)NC(=O)OCc1c(COC(=O)NC(C)C)c(-c2ccsc2)n2c1CCC2 is 65
